B1: Poly(rC)-binding protein 1, residues 278 to 350; numbered along this chain, Q15365 (parent)
chain: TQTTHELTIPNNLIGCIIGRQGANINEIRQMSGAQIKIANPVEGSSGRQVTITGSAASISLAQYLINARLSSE

Variants of: B1
Assay Summary: abundance fitness (aPCA) (normalised: wild type 0, dead -1); higher = more abundant; growth selection in yeast, the domain comes from the species named
Reported Conditions: Homo sapiens
Label Yes when abundance fitness is at or above -0.2; otherwise label No.

Example entries and their recorded answers appear below.
{"columns": ["Var", "Assigned Label"],
 "data": [
  ["P10G", "No"],
  ["Q49H", "Yes"],
  ["G44P", "No"],
  ["L61K", "Yes"],
  ["I25W", "No"]
]}

Ask: Given N40F , state whether its abundance fitness is at least -0.2.
Reply: No

Ask: Record N26A ; criterion: abundance fitness no lower than -0.2. Met?
Reply: Yes

Ask: Please indicate if the recorded abundance fitness for I17A meets or exceeds -0.2.
Reply: No

Ask: Is abundance fitness at least -0.2? Consider H5N
Reply: Yes

Ask: abundance fitness >= -0.2 for Y64V ?
Reply: Yes

Ask: Form field: abundance fitness at least -0.2? Entry: T51R
Reply: Yes

Ask: Is abundance fitness at least -0.2? Consider N40Q
Reply: Yes

Ask: Reported abundance fitness at or above -0.2? V50G
Reply: No
